# Tested on: FGFR3-TACC3_v1 expression/NIH3T3 cells
# measurementProtocol: Anchorage-independent cell proliferation, spheroid plate, CellTiter-Glo
# experimentalContext: Mus musculus, NIH3T3, 96 h, read-out: growth inhibition rate (%), v1
quantityMeasured: inhibition at 0.1 µM (%)
One number for each entry, in %.

- moleculeSmiles: "COc1cc(OC)c(F)c(COc2cnc(Nc3cc(CN4CCN(C)CC4)n(C)n3)nc2)c1F"
  quantityMeasured: "inhibition at 0.1 µM"
  unitSpec: "%"
  assayResult: 84
- moleculeSmiles: "COc1cc(CCc2cc(NC(=O)c3ccc(N4C[C@@H](C)N[C@@H](C)C4)cc3)[nH]n2)cc(OC)c1"
  quantityMeasured: "inhibition at 0.1 µM"
  unitSpec: "%"
  assayResult: 74
- moleculeSmiles: "CCN1CCN(c2ccc(Nc3cc(N(C)C(=O)Nc4c(Cl)c(OC)cc(OC)c4Cl)ncn3)cc2)CC1"
  quantityMeasured: "inhibition at 0.1 µM"
  unitSpec: "%"
  assayResult: 92

Read the next record carefully.
## Input Checklist item: inhibition at 0.1 µM tested on FGFR3-TACC3_v1 expression/NIH3T3 cells, entry `COc1cc(OC)c(F)c(COc2cnc(Nc3ccc(N4CCN(C)CC4)cc3)nc2)c1F` , value?
## Output 90

---

# Tested on: FGFR3-TACC3_v3 (N-FLAG) fusion polypeptide
# measurementProtocol: In vitro kinase activity of FGFR3-TACC3_v3 (N-FLAG) fusion polypeptide (HTRF KinEASE-TK, peptide substrate)
# Format: biochemical, human
# experimentalContext: final concentration 10 nM; ATP 100 μM
Assign Inhibition against peptide substrate FGFR3-TACC3 v3 to each entry below.
Give bare numbers, in %.

- compound: "COc1cc(OC)c(F)c(COc2cnc(Nc3cc(CN4CCN(C)CC4)n(C)n3)nc2)c1F"
  assayResult: 55
- compound: "COc1cc(CCc2cc(NC(=O)c3ccc(N4C[C@@H](C)N[C@@H](C)C4)cc3)[nH]n2)cc(OC)c1"
  assayResult: 52
- compound: "CCN1CCN(c2ccc(Nc3cc(N(C)C(=O)Nc4c(Cl)c(OC)cc(OC)c4Cl)ncn3)cc2)CC1"
  assayResult: 38
- compound: "COc1cc(OC)c(F)c(COc2cnc(Nc3ccc(N4CCN(C)CC4)cc3)nc2)c1F"
  assayResult: 85

## Input If you can, please state the reported Inhibition against peptide substrate FGFR3-TACC3 v3 value of C[C@@H](Oc1ccc2[nH]nc(/C=C/c3cnn(CCO)c3)c2c1)c1c(Cl)cncc1Cl [LY2874455, reference compound] .
## Output 83

---

# System: FGFR3-TACC3_v2 (N-FLAG) fusion polypeptide
# measurementProtocol: In vitro kinase activity of FGFR3-TACC3_v2 (N-FLAG) fusion polypeptide (HTRF KinEASE-TK, peptide substrate)
# Type: biochemical, human
# experimentalContext: final concentration 10 nM; ATP 100 μM
Field: label. Allowed values: true (Inhibition against peptide substrate FGFR3-TACC3 v2 < 70%) or false (Inhibition against peptide substrate FGFR3-TACC3 v2 >= 70%).

Answered cases to consult:
- molecule: "COc1cc(OC)c(F)c(COc2cnc(Nc3cc(CN4CCN(C)CC4)n(C)n3)nc2)c1F"
  classification: "true"
- molecule: "C[C@@H](Oc1ccc2[nH]nc(/C=C/c3cnn(CCO)c3)c2c1)c1c(Cl)cncc1Cl [LY2874455, reference compound]"
  classification: "false"

Let us examine a further case.
## Input Bench note: check whether `CCN1CCN(c2ccc(Nc3cc(N(C)C(=O)Nc4c(Cl)c(OC)cc(OC)c4Cl)ncn3)cc2)CC1` shows Inhibition against peptide substrate FGFR3-TACC3 v2 below 70%
## Output true
